- protocolDetails: Aqueous solubility test
- Type: physicochemical
- runConditions: aqueous buffer, thermodynamic from solid; buffer at pH 7.4, rt; read-out: Aqueous solubility, buffer at pH 7.4
testReadout: solubility (µg/mL)
Numbers only, in µg/mL.

Short answer for CO/N=C1\C[C@@H](CCC(=O)Nc2ncc(C)s2)C2C3CCc4cc(OC(=O)CN(C)C)c(C(C)(C)C)cc4C3CC[C@]12C.Cl (stereo partly shown) [Compound 4a] : solubility was 7.99

----------
- protocolDetails: Aqueous solubility test
- Type: physicochemical
- runConditions: pH 7.4, aqueous buffer, thermodynamic from solid
testReadout: solubility

CO/N=C1\C[C@@H](CCC(=O)Nc2ncc(C)s2)C2C3CCc4cc(O)c(C(C)(C)C)cc4C3CC[C@]12C (stereo partly shown) [VIV-1] yielded solubility of < 0.52 µg/mL
